Assay: Mean resident time in overnight fasted Beagle dog at 1 mg/kg, iv
Type: ADME, organism-based, Canis lupus familiaris
Parameters: dose 1 mg/kg, route intravenous
Conditions: in vivo
Collected MRT values appear next to each entry.
readoutType: MRT

compound=CCC(=O)N1CCC(c2ccc(C(=O)NC(=N)N)cc2C(F)(F)F)CC1 result="14 h"
compound=N#Cc1cccc(C(=O)N2CCC(c3ccc(C(=O)NC(=N)N)cc3C(F)(F)F)CC2)c1 result="17 h"
compound="CC(=O)N1CCC(c2ccc(C(=O)NC(=N)N)cc2C(F)(F)F)CC1 [BI 9627]" result="6.2 h"

---

Examples of compounds with documented bioavailability follow.
Experiment: Oral bioavailability in overnight fasted Beagle dog at 5 mg/kg
Format: ADME, organism-based, Canis lupus familiaris
Conditions: in vivo
readoutType: bioavailability (%)

compound=N#Cc1cccc(C(=O)N2CCC(c3ccc(C(=O)NC(=N)N)cc3C(F)(F)F)CC2)c1 result=36
compound="CC(=O)N1CCC(c2ccc(C(=O)NC(=N)N)cc2C(F)(F)F)CC1 [BI 9627]" result=33
compound=CCC(=O)N1CCC(c2ccc(C(=O)NC(=N)N)cc2C(F)(F)F)CC1 result=49

---

Test: Permeability of the compound by PAMPA
Type: ADME
Conditions: read-out: permeability
This listing pairs molecules with measured Papp.
readoutType: Papp

structure=CN(C)S(=O)(=O)c1ccc(C(=O)N2CCC(c3ccc(C(=O)NC(=N)N)cc3C(F)(F)F)CC2)cc1 result="≥ 2 ×10⁻⁶ cm/s"
structure=CS(=O)(=O)c1cccc(C(=O)N2CCC(c3ccc(C(=O)NC(=N)N)cc3C(F)(F)F)CC2)c1 result="< 2 ×10⁻⁶ cm/s"
structure=COc1ccc(C(=O)N2CCC(c3ccc(C(=O)NC(=N)N)cc3C(F)(F)F)CC2)cc1 result="≥ 2 ×10⁻⁶ cm/s"
structure=COCC(=O)N1CCC(c2ccc(C(=O)NC(=N)N)cc2C(F)(F)F)CC1 result="≥ 2 ×10⁻⁶ cm/s"
structure=N=C(N)NC(=O)c1ccc(C2CCN(C(=O)C3CC3)CC2)c(C(F)(F)F)c1 result="≥ 2 ×10⁻⁶ cm/s"
structure=N=C(N)NC(=O)c1ccc(C2CCN(C(=O)c3ccc(O)nc3)CC2)c(C(F)(F)F)c1 result="< 2 ×10⁻⁶ cm/s"
structure=CCC(=O)N1CCC(c2ccc(C(=O)NC(=N)N)cc2C(F)(F)F)CC1 result="≥ 2 ×10⁻⁶ cm/s"
structure=Cc1cc(C(=O)N2CCC(c3ccc(C(=O)NC(=N)N)cc3C(F)(F)F)CC2)nn1C result="< 2 ×10⁻⁶ cm/s"
structure=CC(C)(C)C(=O)N1CCC(c2ccc(C(=O)NC(=N)N)cc2C(F)(F)F)CC1 result="≥ 2 ×10⁻⁶ cm/s"
structure=CC(C)C(=O)N1CCC(c2ccc(C(=O)NC(=N)N)cc2C(F)(F)F)CC1 result="≥ 2 ×10⁻⁶ cm/s"
structure=N=C(N)NC(=O)c1ccc(C2CCN(C(=O)c3ccc(F)cc3)CC2)c(C(F)(F)F)c1 result="≥ 2 ×10⁻⁶ cm/s"
structure=N#Cc1ccccc1C(=O)N1CCC(c2ccc(C(=O)NC(=N)N)cc2C(F)(F)F)CC1 result="≥ 2 ×10⁻⁶ cm/s"
structure=N=C(N)NC(=O)c1ccc(C2CCN(C(=O)c3ccc(O)cc3)CC2)c(C(F)(F)F)c1 result="< 2 ×10⁻⁶ cm/s"
structure=N=C(N)NC(=O)c1ccc(C2CCN(C(=O)c3cccnc3)CC2)c(C(F)(F)F)c1 result="< 2 ×10⁻⁶ cm/s"
structure=Cn1cncc1C(=O)N1CCC(c2ccc(C(=O)NC(=N)N)cc2C(F)(F)F)CC1 result="< 2 ×10⁻⁶ cm/s"
structure=N=C(N)NC(=O)c1ccc(C2CCN(C(=O)c3ccc(S(N)(=O)=O)cc3)CC2)c(C(F)(F)F)c1 result="< 2 ×10⁻⁶ cm/s"
structure=CNC(=O)c1ccc(C(=O)N2CCC(c3ccc(C(=O)NC(=N)N)cc3C(F)(F)F)CC2)cc1 result="< 2 ×10⁻⁶ cm/s"
structure=N#Cc1ccc(C(=O)N2CCC(c3ccc(C(=O)NC(=N)N)cc3C(F)(F)F)CC2)cc1 result="≥ 2 ×10⁻⁶ cm/s"
structure=N=C(N)NC(=O)c1ccc(C2CCN(C(=O)c3ccccn3)CC2)c(C(F)(F)F)c1 result="≥ 2 ×10⁻⁶ cm/s"
structure=Cn1ccnc1C(=O)N1CCC(c2ccc(C(=O)NC(=N)N)cc2C(F)(F)F)CC1 result="≥ 2 ×10⁻⁶ cm/s"
structure=CNS(=O)(=O)c1ccc(C(=O)N2CCC(c3ccc(C(=O)NC(=N)N)cc3C(F)(F)F)CC2)cc1 result="< 2 ×10⁻⁶ cm/s"
structure=CN(C)C(=O)c1ccc(C(=O)N2CCC(c3ccc(C(=O)NC(=N)N)cc3C(F)(F)F)CC2)cc1 result="< 2 ×10⁻⁶ cm/s"
structure=N=C(N)NC(=O)c1ccc(C2CCN(C(=O)c3ccc(C(N)=O)cc3)CC2)c(C(F)(F)F)c1 result="< 2 ×10⁻⁶ cm/s"

Every entry's value here was drawn from ChEMBL document CHEMBL2169836.
